Reference source for all entries: PubChem BioAssay AID190

Test system: AKR/Lw mice, AKR lymphoma ip, median survival T/C
Assay: NCI In Vivo Anticancer Drug Screen. Data for tumor model Lymphoma AKR (Transplanted) (intraperitoneal) in AKR/Lw mice
Settings: endpoint: median survival time; dose: 100.0 mg/kg/injection; schedule: Q04DX003 (ip); vehicle: Klucel (hydroxypropylcellulose) (HPC); higher = longer survival
Toxic doses and inconclusive results are not listed.
value kind: T/C

Answer with reported T/C of `CS(=O)(=O)OCCCCOS(C)(=O)=O` 100 % of control

Answer with reported T/C of `Clc1nnc(Nc2ccccc2)c2ccccc12` 92 % of control

Answer with reported T/C of `NC(=S)N/N=C/c1ccc(O)cn1` 120 % of control

Answer with reported T/C of `N=Cc1c(O)[nH]c(=O)[nH]c1=O` 100 % of control

Answer with reported T/C of c1cc2cc3c(cc2cc1CC1NCCc2cc4c(cc21)OCO4)OCO3 (stereo not drawn) 96 % of control

Answer with reported T/C of `CCOC(=O)N(CC)c1ccccc1` 113 % of control

Answer with reported T/C of `CC(C)c1c[nH]c(=O)[nH]c1=O` 94 % of control

Answer with reported T/C of `S=c1[nH]nc(NC2CCCCC2)s1` 100 % of control

Answer with reported T/C of COC(=O)C1(C)CCC(c2ccc(OC)cc2)CC1=O (stereo not drawn) 106 % of control

Answer with reported T/C of `O=C(Cc1ccc2cc3c(cc2c1)OCO3)NCCc1ccc2c(c1)OCO2` 100 % of control

Answer with reported T/C of Nc1ccccc1SC1CC(=O)N(c2ccc(I)cc2)C1=O (stereo not drawn) 90 % of control

Answer with reported T/C of `O=C1CSC(=S)N1c1ccco1` 90 % of control

Answer with reported T/C of `Cc1c2ccncc2c(C)c2c1[nH]c1ccccc12` 107 % of control

Answer with reported T/C of `CN(C)/N=N/c1nc[nH]c1C(N)=O` 87 % of control

Answer with reported T/C of `Clc1ccc(/C(=[C](\[Hg]/[C](=C(\c2ccccc2)c2ccc(Cl)cc2)c2ccccc2)c2ccccc2)c2ccccc2)cc1` 100 % of control

Answer with reported T/C of `COc1ccc(Br)cc1/C=N\NS(=O)(=O)c1ccc(C)cc1` 106 % of control

Answer with reported T/C of COc1cc2c(cc1OC)C(CNC(=O)/C=C/c1ccccc1)C2 (stereo not drawn) 96 % of control

Answer with reported T/C of Cc1ccc(N2C(=O)CC(Sc3ccccc3N)C2=O)cc1 (stereo not drawn) 90 % of control

Answer with reported T/C of `CCN(CC)C(N)=S` 100 % of control

Answer with reported T/C of `COc1ccccc1Oc1ccc(N=Cc2ccc(C)cc2)cc1` 93 % of control

Answer with reported T/C of c1cc2cc3c(cc2c2c1CC1c4cc5c(cc4CCN1C2)OCO5)OCO3 (stereo not drawn) 103 % of control

Answer with reported T/C of `CN(CCOc1ccccc1O)CCOc1ccccc1O` 100 % of control

Answer with reported T/C of `Cc1ccc(S(=O)(=O)Nc2ccccc2-c2nc3c(Cl)ccc(Cl)c3c(=O)o2)cc1` 90 % of control

----------
Record form. Attribute: T/C. Fill in for each entry.
Test system: AKR/Lw mice, AKR lymphoma ip, median survival T/C
Assay: NCI In Vivo Anticancer Drug Screen. Data for tumor model Lymphoma AKR (Transplanted) (intraperitoneal) in AKR/Lw mice
Details: endpoint: median survival time; dose: 100.0 mg/kg/injection; schedule: Q01DX001 (ip); vehicle: Klucel (hydroxypropylcellulose) (HPC); higher = longer survival
Toxic doses and inconclusive results are not listed.

Answer with reported T/C of c1cc2cc3c(cc2c2c1CC1c4cc5c(cc4CCN1C2)OCO5)OCO3 (centres undefined) 102 % of control

Answer with reported T/C of `NCOC(=O)Cc1ccc(Br)cc1` 106 % of control

Answer with reported T/C of `CC(C)OC(=O)Oc1cccc2c1C(=O)c1ccccc1C2=O` 95 % of control

Answer with reported T/C of `O=C(O)CCCc1ccc(N(CCCl)CCCl)cc1` 104 % of control

Answer with reported T/C of Nc1ccccc1SC1CC(=O)N(c2ccc(I)cc2)C1=O (centres undefined) 93 % of control

Answer with reported T/C of `COc1ccc(-n2c(=S)[nH]c3ccccc3c2=O)cc1` 106 % of control

Answer with reported T/C of `CCOC(=O)N(CC)c1ccccc1` 109 % of control

Answer with reported T/C of `COc1ccc(COC(=O)CN2C(=O)c3ccccc3C2=O)cc1` 97 % of control

Answer with reported T/C of `CN(C)CCCNC(=O)Nc1ccccc1` 103 % of control

----------
Tested on: AKR/Lw mice, AKR lymphoma ip, median survival T/C
Assay: NCI In Vivo Anticancer Drug Screen. Data for tumor model Lymphoma AKR (Transplanted) (intraperitoneal) in AKR/Lw mice
Settings: endpoint: median survival time; dose: 400.0 mg/kg/injection; schedule: Q01DX001 (ip); vehicle: saline; higher = longer survival
Toxic doses and inconclusive results are not listed.
Record form. Attribute: T/C. Fill in for each entry.

Answer with reported T/C of COC(=O)C(COS(=O)(=O)c1ccccc1)NC(=O)OCc1ccccc1 (centres undefined) 102 % of control

Answer with reported T/C of `Cn1c(O)c(C=N)c(=O)[nH]c1=O` 113 % of control

Answer with reported T/C of C1CC2C(CCCC23OCCO3)C2(C1)OCCO2 (centres undefined) 113 % of control

Answer with reported T/C of O=S1(=O)CC(O)C(Cl)C1 (centres undefined) 95 % of control

Answer with reported T/C of `c1ccc2c(c1)OCCOCCOc1ccccc1OCCOCCO2` 103 % of control

Answer with reported T/C of O=C1CC2CCCC(C1)S2=O (centres undefined) 97 % of control

Answer with reported T/C of `COC(=O)Cc1ccc([N+](=O)[O-])cc1[N+](=O)[O-]` 97 % of control

Answer with reported T/C of O=C(NC(CSSCC(NC(=O)OCc1ccccc1)C(=O)O)C(=O)O)OCc1ccccc1 (centres undefined) 102 % of control

Answer with reported T/C of `S=c1nc[nH]c2nc[nH]c12` 102 % of control

Answer with reported T/C of `O=C(O)C12CCC(CC1)C2` 105 % of control

Answer with reported T/C of `CCOC(=O)CCCSCCCC(=O)OCC` 95 % of control

Answer with reported T/C of CC12CCCC(=O)C1CC/C(=C\c1ccco1)C2=O (centres undefined) 100 % of control

Answer with reported T/C of `CC(C)(CNc1ccc(C(=O)O)cc1)[N+](=O)[O-]` 86 % of control

Answer with reported T/C of COC(=O)C1CC2C(Cl)=C(Cl)C1(Cl)C2(Cl)Cl (centres undefined) 103 % of control

Answer with reported T/C of COC(=O)C1(C)CCC(c2ccc(C)cc2)=C(CC(=O)O)C1 (centres undefined) 94 % of control

Answer with reported T/C of `c1ccc(CC(Cc2ccccc2)CN2CCCC2)cc1` 123 % of control

Answer with reported T/C of O=P1(NCCCl)OCCCN1CCCl (centres undefined) 86 % of control

Answer with reported T/C of `Cc1cnc2c(=N)n(C(=O)C(F)(F)F)n(C)c2n1` 92 % of control

Answer with reported T/C of `COc1ccc(/C=C2/CSC/C(=C/c3ccc(OC)c(OC)c3)C2=O)cc1OC` 90 % of control

----------
Record form. Attribute: T/C. Fill in for each entry.
System: AKR/Lw mice, AKR lymphoma ip, median survival T/C
Test: NCI In Vivo Anticancer Drug Screen. Data for tumor model Lymphoma AKR (Transplanted) (intraperitoneal) in AKR/Lw mice
Details: endpoint: median survival time; dose: 200.0 mg/kg/injection; schedule: Q01DX001 (ip); vehicle: Klucel (hydroxypropylcellulose) (HPC); higher = longer survival
Toxic doses and inconclusive results are not listed.

Answer with reported T/C of S=C1NC(c2ccccc2)NC(c2ccccc2)S1 (stereo unspecified) 92 % of control

Answer with reported T/C of COc1cc2c(cc1OC)C(CNC(=O)/C=C/c1ccccc1)C2 (stereo unspecified) 94 % of control

Answer with reported T/C of `Cc1ccc(OS(=O)(=O)c2ccc([N+](=O)[O-])cc2)cc1` 100 % of control

Answer with reported T/C of `O=C(O)CCC(=O)Nc1cccc(Oc2ccc([N+](=O)[O-])cc2[N+](=O)[O-])c1` 87 % of control

Answer with reported T/C of `CCOC(=O)N(CC)c1ccccc1` 111 % of control

Answer with reported T/C of `Nc1ccc(OCc2ccc(S(=O)(=O)F)c(Cl)c2)c(Cl)c1` 90 % of control

Answer with reported T/C of CCCCC(C(=O)OCC)C(CCC1CCCCC1)(C(=O)OCC)C(=O)OCC (stereo unspecified) 104 % of control

Answer with reported T/C of CC[CH](C)[Hg][c]1cccc2ccccc12 (stereo unspecified) 86 % of control

Answer with reported T/C of C1CC2C(CCCC23OCCO3)C2(C1)OCCO2 (stereo unspecified) 96 % of control

Answer with reported T/C of `CCOc1ccc2nc(N)sc2c1` 92 % of control

Answer with reported T/C of `CC(C)n1c(=S)[nH]c2ccccc2c1=O` 118 % of control
